- TARGET OF ASSAY: SARS-CoV-2 spike receptor-binding domain, Delta variant (amino acids 331-529), biotinylated (SARS-CoV-2, Delta, L452R | T478K, biotin (RBD expression vector co-expressed with BirA-Flag, 100 μM biotin added))
- EXPERIMENT NOTES: BLI
- CONDITION DESCRIPTION: both partners purified
Answer each item with its documented Kd.
State just the number; it will be interpreted in pM.

Given item NIV-13 Fab (Fab, V domains shown) VH: EVQLLESGGGLVQPGGSLRLSCAASGFTFSRYALSWVRQAPGKGLEWVSAISGAAITTYYADSVKGRFTISRDDSRNTLFMQMDSLRAEDTAVYYCAKGDYYDSSGYLAEYFPHWGQGTLVTVSS VL: SYELTQPPSVSVSPGQTARITCFADALPKQHAYWYQQKAGQAPVLVIFKDTERPSGIPKRFSGSRSGATVTLTISGVQAEDEADYYCQSTDISGVLFGGGTKLTVL , the value recorded as its Kd is 91.9

Given item NIV-11 Fab (Fab, V domains shown) VH: QLVQSGPEVKKPGTSVKVSCKASGFTFYYSAVQWVRQARGQRLEWLGWMAVGSGKANYAQKFQERLTLTRDMSTSTAYMELSSLRSEDTAVYYCAAPNCTGGSCYDGFNLWGQGTVVTVSS VL: EIVLTQSPGTLSLSPGDRAILSCRASQTVNSNYLAWYQQKPGQAPRLLIYGTSSRATGIPDRFSGSGSGTDFTLTISRLEPEDFAVYYCQQYGSSPWLFGQGTKVEIK , the value recorded as its Kd is 4.78

Given item NIV-10 Fab (Fab, V domains shown) VH: EVQLVESGGGLVQPGGSLRLSCAASGFTFYSYWMTWVRQAPGKGLEWVANIKHDESESHYVDSVRGRFTISRDNAKNSVYLQMKGLRAEDTAVYYCARDGGYNILTAYYHAPSYWGQGTLVTVSS VL: QSALTQPASVSGSPGQSITISCTGTSSDVGGYNFVSWYRQYPGKAPQLMIYDVSRRPSGDSDRFSGSKSGNTASLTISGLQAEDEAEYHCSSYTGRSPYVVFGGGTKVTVL , the value recorded as its Kd is 3.71

Given item NIV-8 Fab (Fab, V domains shown) VH: EVQLVESGGGVVQPGRSLRLSCAASGFKFSKFAMHWVRQAPGKGPEWVAVISYDGNQYHSADSVKGRFTISRDNSFNTLYLQMNSLGPEDTAVYYCARDGPDTSGYYANIYFDFWGQGTLVTVSS VL: QSVLTQPPSVSGAPGQRVTISCTGSSSNIGAGYDVHWYQQLPGRAPKLLIFDNNNRPSGVPDRFSGSKSGTSASLAITGLQTEDEAYYYCQSYDNSLILAVFGGGTKVTVL , the value recorded as its Kd is 4.75

Values were extracted from paper PMC10349087.
